Reference source: patent US4960788A

Target: opioid receptors (Rattus norvegicus)
Sequence (P33535 whole entry): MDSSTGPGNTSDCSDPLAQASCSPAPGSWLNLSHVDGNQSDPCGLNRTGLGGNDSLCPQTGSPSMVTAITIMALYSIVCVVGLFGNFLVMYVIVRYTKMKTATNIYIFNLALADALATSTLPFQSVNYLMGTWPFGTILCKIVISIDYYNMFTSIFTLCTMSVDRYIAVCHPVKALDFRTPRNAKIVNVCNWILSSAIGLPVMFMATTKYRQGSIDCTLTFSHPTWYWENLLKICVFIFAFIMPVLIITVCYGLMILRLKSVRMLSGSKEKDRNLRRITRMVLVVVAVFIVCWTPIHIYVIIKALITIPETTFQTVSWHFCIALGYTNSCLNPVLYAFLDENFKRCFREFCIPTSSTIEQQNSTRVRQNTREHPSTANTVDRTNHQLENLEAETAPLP
pIC50: −log10 of the molar value.
Readings of pIC50 for the listed molecules
Measured Endpoint: pIC50

Molecule	Experimental System	Data Value
CC[C@@H](C)N(C[C@H](O)[C@@H]1CCC(=O)N1Cc1ccccc1Cl)[C@H](C)CC [Compound 1]	opioid receptors (Rattus norvegicus)	9.05
CC[C@@H](C)N(C[C@H](O)[C@@H]1CCC(=O)N1Cc1ccccc1)[C@H](C)CC [Compound 14]	opioid receptors (Rattus norvegicus)	8.48
CC[C@@H](C)N(C[C@H](O)[C@@H]1CCC(=O)N1Cc1ccccc1F)[C@H](C)CC [Compound 16]	opioid receptors (Rattus norvegicus)	8.60
CC[C@@H](C)N(C[C@H](O)[C@@H]1CCC(=O)N1Cc1cc(Br)no1)[C@H](C)CC [Compound 22]	opioid receptors (Rattus norvegicus)	8.03

====

Experiment: hot plate test on mouse (central analgesic activity)
Type: in vivo
Conditions: sc; subcutaneous; mouse hot plate test; read-out: Analgesic activity ED50 (C.L. 95%), s.c.
Measured Endpoint: ED50 (mg/kg)

Entry Smiles	Measured Endpoint	Data Value
O=C1CC[C@@H]([C@@H](O)CN(C2CCCC2)C2CCCC2)N1Cc1ccccc1Cl	ED50	4.7
CC[C@@H](C)N(C[C@H](O)[C@@H]1CCC(=O)N1Cc1ccccc1Cl)[C@@H](C)CC	ED50	1.4
CC[C@@H](C)N(C[C@H](O)[C@@H]1CCC(=O)N1Cc1ccccc1)[C@H](C)CC	ED50	0.04
CC[C@@H](C)N(C[C@H](O)[C@@H]1CCC(=O)N1Cc1cccc(C(F)(F)F)c1)[C@H](C)CC	ED50	0.5

====

Experiment: hot plate test on mouse (central analgesic activity)
Type: in vivo
Settings: sc; subcutaneous; mouse hot plate test; read-out: Analgesic activity ED50 (C.L. 95%), s.c.
Measured Endpoint: log10(ED50) (log10 of the value in mg/kg)

Entry Smiles	log10(ED50)
CC[C@@H](C)N(C[C@H](O)[C@@H]1CCC(=O)N1Cc1ccccc1Cl)C(C)C	0.04
CC[C@@H](C)N(C[C@@H](O)[C@H]1CCC(=O)N1Cc1ccccc1Cl)[C@H](C)CC	0.58
CC[C@@H](C)N(C[C@H](O)[C@@H]1CCC(=O)N1Cc1cc(Br)no1)[C@H](C)CC	0.00
CC[C@@H](C)N(C[C@H](O)[C@@H]1CCC(=O)N1Cc1ccc(Br)cc1)[C@H](C)CC	-1.52
CC[C@@H](C)N(C[C@H](O)[C@@H]1CCC(=O)N1Cc1ccccc1F)[C@H](C)CC	-1.52
CC[C@@H](C)N(C[C@H](O)[C@@H]1CCC(=O)N1Cc1ccccc1Cl)[C@H](C)CC	-1.96
CC[C@@H](C)N(C[C@H](O)[C@@H]1CCC(=O)N1Cc1cccc(OC)c1)[C@H](C)CC	-1.15
CC[C@@H](C)N(C[C@H](O)[C@@H]1CCC(=O)N1Cc1ccc(Cl)c(Cl)c1)[C@H](C)CC	-0.55
